- targetOrSystem: BTK enzyme (recombinant full-length BTK, hBTK) (Homo sapiens)
- Construct: recombinant protein from baculovirus-transfected Sf9 cells: full-length BTK, 6HIS-tag cleaved; 6HIS (cleaved yes); made in house; host or cells: baculovirus-transfected Sf9 cells
- Sequence (Q06187 whole entry): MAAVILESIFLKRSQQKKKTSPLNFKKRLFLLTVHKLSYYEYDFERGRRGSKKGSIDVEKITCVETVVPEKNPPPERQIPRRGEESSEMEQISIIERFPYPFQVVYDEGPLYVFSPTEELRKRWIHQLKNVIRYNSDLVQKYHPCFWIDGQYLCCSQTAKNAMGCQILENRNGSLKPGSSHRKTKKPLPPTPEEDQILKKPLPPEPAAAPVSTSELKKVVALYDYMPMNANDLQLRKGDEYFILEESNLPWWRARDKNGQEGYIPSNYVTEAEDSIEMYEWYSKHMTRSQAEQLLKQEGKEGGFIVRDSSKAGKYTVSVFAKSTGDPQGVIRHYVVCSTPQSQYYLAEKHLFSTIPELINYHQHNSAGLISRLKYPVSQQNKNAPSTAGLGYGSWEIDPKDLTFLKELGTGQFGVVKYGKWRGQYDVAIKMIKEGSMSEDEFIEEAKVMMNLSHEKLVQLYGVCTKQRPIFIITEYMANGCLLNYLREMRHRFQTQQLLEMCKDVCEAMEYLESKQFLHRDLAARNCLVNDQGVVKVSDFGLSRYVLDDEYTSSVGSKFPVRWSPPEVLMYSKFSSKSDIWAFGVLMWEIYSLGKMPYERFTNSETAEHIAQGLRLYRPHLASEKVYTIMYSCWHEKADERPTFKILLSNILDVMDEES
- assayNotes: BTK enzyme activity assay, LANCE TR-FRET
- Type: biochemical
- statedConditions: 50 pM hBTK, 2 μM biotin-A5-peptide, 25 μM ATP; 60 min compound & enzyme incubation; read-out: IC50 BTK activity value
pIC50: −log10 of the molar value.
Rule: YES for pIC50 not less than 9, NO for anything less.

Check out these entries, answers already filled in.
[
  {
    "molecule": "Nc1ncc(F)n2c([C@@H]3CC[C@H]4CCC(=O)N4C3)nc(-c3ccc(C(=O)Nc4cc(C(F)(F)F)ccn4)cc3F)c12 [Example 166]",
    "cat": "YES"
  },
  {
    "molecule": "C[C@@H]1CC(=O)N2C[C@H](c3nc(-c4ccc(C(=O)Nc5cc(C(F)(F)F)ccn5)cc4)c4c(N)nccn34)CC[C@@H]12 [Example 62]",
    "cat": "NO"
  },
  {
    "molecule": "CC(C)N1CC(=O)N2C[C@H](c3nc(-c4ccc(C(=O)Nc5cc(C(F)(F)F)ccn5)cc4)c4c(N)nccn34)CC[C@H]2C1 [Example 81]",
    "cat": "YES"
  },
  {
    "molecule": "CC(F)(F)c1ccnc(NC(=O)c2ccc(-c3nc([C@@H]4CC[C@H]5CCC(=O)N5C4)n4ccnc(N)c34)c(F)c2)c1 [Example 21]",
    "cat": "YES"
  }
]

Query :: Form field: pIC50 at least 9? Entry: COc1cc(C(=O)Nc2cc(C(F)(F)F)ccn2)ccc1-c1nc([C@@H]2CC[C@H]3CC(C)(C)C(=O)N3C2)n2ccnc(N)c12 [Example 100]
Result :: YES

Query :: pIC50 >= 9 for C[C@H]1OC(=O)N2C[C@H](c3nc(-c4ccc(C(=O)Nc5cc(C(F)(F)F)ccn5)cc4F)c4c(N)nccn34)CC[C@@H]12 [Example 31] ?
Result :: YES

Query :: Form field: pIC50 at least 9? Entry: CC1CC(=O)N2C[C@H](c3nc(-c4ccc(C(=O)Nc5cc(C(F)(F)F)ccn5)cc4)c4c(N)nccn34)CC[C@@H]12 (stereo in doubt) [Example 65]
Result :: YES

Query :: # check: pIC50 of Nc1ncc(Cl)n2c([C@@H]3CC[C@H]4CCC(=O)N4C3)nc(-c3ccc(C(=O)Nc4cc(C(F)(F)F)ccn4)cc3)c12 [Example 153] is greater than or equal to 9
Result :: YES

Query :: Form field: pIC50 at least 9? Entry: CCOc1cc(C(=O)Nc2cc(C(F)(F)F)n(C)n2)ccc1-c1nc([C@@H]2CC[C@H]3CCC(=O)N3C2)n2c(C(F)(F)F)cnc(N)c12 [Example 215]
Result :: NO

---

- Tested on: HeLa cells
- assayNotes: [3H]Adenosine uptake functional cellular assay
- Assay type: cell-based
- statedConditions: Homo sapiens, HeLa, accumulation of [3H]adenosine into HeLa cells; compound range 10 μM to […]; read-out: Adenosine uptake inhibition IC50
The reader will find reported pIC50 values listed item by item below.
Quick note: pIC50 values are minus log10 of concentrations in mol/L.

Solved cases below.
[
  {
    "compound": "COC(=O)c1ccnc(NC(=O)c2ccc(-c3nc([C@@H]4CC[C@H]5CCC(=O)N5C4)n4ccnc(N)c34)cc2)c1 [Example 103]",
    "pIC50": 7.16
  },
  {
    "compound": "Nc1nccn2c([C@@H]3CC[C@H]4C[C@@H](O)C(=O)N4C3)nc(-c3ccc(C(=O)Nc4cc(C(F)(F)F)ccn4)cc3)c12 [Example 59]",
    "pIC50": 6.40
  },
  {
    "compound": "CC(C)c1cc(C(F)(F)F)cc(NC(=O)c2ccc(-c3nc([C@@H]4CC[C@H]5CCC(=O)N5C4)n4ccnc(N)c34)cc2)n1 [Example 125]",
    "pIC50": 6.19
  },
  {
    "compound": "COc1cc(C(=O)Nc2cc(C(F)(F)F)ccn2)ccc1-c1nc([C@@H]2CC[C@H]3[C@@H](C)OC(=O)N3C2)n2ccnc(N)c12 [Example 89]",
    "pIC50": 6.31
  },
  {
    "compound": "COC(=O)CN1CC(=O)N2C[C@H](c3nc(-c4ccc(C(=O)Nc5cc(C(F)(F)F)ccn5)cc4)c4c(N)nccn34)CC[C@H]2C1 [Example 82]",
    "pIC50": 7.11
  }
]

Okay, next one:
Entry COc1cc(C(=O)Nc2cc(C(F)(F)F)ccn2)ccc1-c1nc([C@@H]2CC[C@H]3CCC(=O)N3C2)n2c(F)cnc(N)c12 [Example 162] , pIC50 reported as 5.81

Ref: patent US20140206681A1
